experimental target: SOS1 catalytic domain (residues 564-1049) (Homo sapiens)
Sequence (Q07889 564-1049): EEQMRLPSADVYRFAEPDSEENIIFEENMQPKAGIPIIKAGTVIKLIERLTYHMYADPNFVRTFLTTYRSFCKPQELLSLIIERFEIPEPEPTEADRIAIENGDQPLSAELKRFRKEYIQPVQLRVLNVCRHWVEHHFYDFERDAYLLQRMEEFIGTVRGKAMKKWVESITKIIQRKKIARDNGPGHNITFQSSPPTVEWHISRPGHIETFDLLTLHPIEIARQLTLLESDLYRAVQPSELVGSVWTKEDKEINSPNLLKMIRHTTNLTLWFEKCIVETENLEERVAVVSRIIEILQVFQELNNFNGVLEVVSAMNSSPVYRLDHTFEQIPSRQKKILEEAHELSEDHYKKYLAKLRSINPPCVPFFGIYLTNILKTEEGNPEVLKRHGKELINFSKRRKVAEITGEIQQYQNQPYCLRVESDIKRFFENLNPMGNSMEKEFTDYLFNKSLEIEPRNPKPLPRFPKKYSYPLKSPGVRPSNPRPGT
pIC50: −log10 of the molar value. Counter-ions that a name gives are not always drawn.
Please respond with reported pIC50 for every item in the list.

Data request, read-out pIC50, for `COc1ccc(S(=O)(=O)N2CCc3nc(Cl)nc(N[C@H](C)c4cc(N)cc(C(F)(F)F)c4)c3C2)cc1` > 6.00

Data request, read-out pIC50, for `C[C@@H](Nc1nc(Cl)nc2c1CN(C(=O)N1CC3CNCC(C1)O3)C2)c1cccc(C(F)F)c1F` > 6.00

Data request, read-out pIC50, for `COC1(C(=O)N2Cc3nc(C)nc(N[C@H](C)c4cccc(C(F)(F)CO)c4)c3C2)CCOCC1` > 6.00

Data request, read-out pIC50, for C[C@@H](Nc1nc(Cl)nc2c1CN(C(=O)C1(C)CCN(C3COC3)C1)C2)c1cccc(C(F)F)c1F (some centres unmarked) > 6.00

Data request, read-out pIC50, for `C[C@@H](Nc1nc(O)nc2c1CN(C(=O)N1CCOCC1)C2)c1cc(N)cc(C(F)(F)F)c1` > 6.00

Data request, read-out pIC50, for `C[C@@H](Nc1nc(Cl)nc2c1CN(C(=O)C1CN(C)C1)C2)c1cc(N)cc(C(F)(F)F)c1` > 6.00

Data request, read-out pIC50, for C[C@@H](Nc1nc(Cl)nc2c1CC(N1CCN(C3CC3)CC1)CC2)c1cccc(C(F)(F)CO)c1 (some centres unmarked) > 6.00

Data request, read-out pIC50, for `C[C@@H](Nc1nc(Cl)nc2c1CN(C(=O)c1cccc(Cl)n1)C2)c1cc(N)cc(C(F)(F)F)c1` < 6.00

Data request, read-out pIC50, for `C[C@@H](Nc1nc(Cl)nc2c1CN(C(=O)N1CCOCC1)C2)c1cccc(C(F)(F)F)c1` > 6.00

Data request, read-out pIC50, for `C[C@@H](Nc1nc(Cl)nc2c1CN(C(=O)N1CCC3(CCN3)CC1)C2)c1cccc(C(F)F)c1F` > 6.00

Data request, read-out pIC50, for C[C@@H](Nc1nc(Cl)nc2c1CN(C(=O)C1CCCN1c1ncccn1)CC2)c1cc(N)cc(C(F)(F)F)c1 (some centres unmarked) < 6.00

Data request, read-out pIC50, for C[C@@H](Nc1nc(Cl)nc2c1C[N+](=C(N(C)C)N(C)C)C2)c1cccc(C(F)F)c1F [Example 529, formate] > 6.00

Data request, read-out pIC50, for C[C@@H](Nc1nc(Cl)nc2c1CN(C(=O)N1CCNC(C(F)(F)F)C1)C2)c1cccc(C(F)F)c1F (some centres unmarked) > 6.00

Data request, read-out pIC50, for `C[C@@H](Nc1nc(Cl)nc2c1CN(C(=O)N1CCNc3ccccc31)C2)c1cccc(C(F)(F)F)c1` > 6.00

Data request, read-out pIC50, for `C[C@@H](Nc1nc(Cl)nc2c1CN(C(=O)N1CCN(C)CC1)C2)c1cccc(C(F)(F)CO)c1` > 6.00

Data request, read-out pIC50, for Cc1nc2c(c(N[C@H](C)c3cc(N)cc(C(F)(F)F)c3)n1)CN(CC1CCOC1)C2 (some centres unmarked) < 6.00

Data request, read-out pIC50, for `C[C@@H](Nc1nc(Cl)nc2c1CN(C(=O)c1ccnnc1)CC2)c1cc(N)cc(C(F)(F)F)c1` > 6.00

Data request, read-out pIC50, for `Cc1nc2c(c(N[C@H](C)c3cc(N)cc(C(F)(F)F)c3)n1)CN(C(=O)N1CCOCC1)CCC2` < 6.00

Data request, read-out pIC50, for `COC(=O)N1C[C@@H]2COC[C@]2(C(=O)N2CCc3nc(Cl)nc(N[C@H](C)c4cc(N)cc(C(F)(F)F)c4)c3C2)C1` > 6.00

Data request, read-out pIC50, for `C[C@@H](Nc1nc(Cl)nc2c1CN(C(=O)C1(C#N)CN(C)C1)C2)c1cccc(C(F)F)c1F` > 6.00

Data request, read-out pIC50, for `C[C@@H](Nc1nc(Cl)nc2c1CN(C(=O)N1CCOCC1)C2)c1cccc(C(F)F)c1Br` > 6.00

Data request, read-out pIC50, for COc1c(C(F)F)cccc1C(C)Nc1nc(Cl)nc2c1CN(C(=O)N1CCOCC1)C2 (centres unmarked) < 6.00

Data request, read-out pIC50, for `C[C@@H](Nc1nc(Cl)nc2c1CN(C(=O)C13CCN(CC1)C3)C2)c1cccc(C(F)F)c1F` > 6.00

Data request, read-out pIC50, for `C[C@@H](Nc1nc(Cl)nc2c1CN(C(=O)N1CCOCC1)C2)c1csc(C(F)F)c1F` < 6.00

Data request, read-out pIC50, for `COc1cccnc1C(=O)N1CCc2nc(Cl)nc(N[C@H](C)c3cc(N)cc(C(F)(F)F)c3)c2C1` < 6.00

Data request, read-out pIC50, for `C[C@@H](Nc1nc(Cl)nc2c1CN(S(=O)(=O)N1CC3CCC(C1)O3)CC2)c1cc(N)cc(C(F)(F)F)c1` > 6.00

Data request, read-out pIC50, for `C[C@@H](Nc1nc(Cl)nc2c1CN(C(=O)C1CC1)CC2)c1cc(N)cc(C(F)(F)F)c1` > 6.00

Data request, read-out pIC50, for C[C@@H](Nc1nc(Cl)nc2c1CN(C(=O)C1CCNCC1F)C2)c1cccc(C(F)F)c1F (some centres unmarked) > 6.00

Data request, read-out pIC50, for `C[C@@H](Nc1nc(Cl)nc2c1CN(C(=O)c1ccncn1)C2)c1cc(N)cc(C(F)(F)F)c1` > 6.00
